# Tested on: MDA-MB-231
# protocol.details: normalised viability (% of control), CellTiter-Blue; higher = more viable cells (about 100 = DMSO control)
# run.conditions: 10000 nM; incubation time: 72 h
Criterion: normalised viability strictly under 90%. Met: Criterion met. Not met: Criterion not met.

// below: answered molecules
is_below(normalised viability, 90%) for C[C@]1(c2nc3c(C(N)=O)cccc3[nH]2)CCCN1 [Veliparib] ?
Criterion not met

API: query returns whether the molecule falls strictly under 90% in normalised viability. Query: COc1cccc2cc(-c3nc([C@H]4CC[C@H](C(=O)O)CC4)n4ncnc(N)c34)[nH]c12 [OSI-027]
Criterion met

Hello, I'm reviewing records and need to know if normalised viability of COc1cc(Nc2ncc3c(n2)-c2ccc(Cl)cc2C(c2c(F)cccc2OC)=NC3)ccc1C(=O)O [MLN8237] is below 90%. Could you check?
Criterion met

Does this molecule meet the criterion normalised viability < 90%? `CN1CCC(COc2cnc(-c3cccc(Cn4nc(-c5cccc(C#N)c5)ccc4=O)c3)nc2)CC1`
Criterion met

Next:
Please let me know if N#CC[C@H](C1CCCC1)n1cc(-c2ncnc3[nH]ccc23)cn1 [Ruxolitinib] shows normalised viability below 90%.
Criterion not met
